Cited source for all entries: ChEMBL document CHEMBL1208783

test: Clearance in rat at 2 mg/kg, iv; type: ADME, organism-based; set-up: dose 2 mg/kg, route intravenous; settings: in vivo
outcome_measure: clearance (mL/min/kg)

>>> assay_result("Nc1nccc(/C=C/c2ccccc2)n1")
75

----------
biological target: Metabotropic glutamate receptor 4 (Homo sapiens, UniProt Q14833); assay: Positive allosteric modulation of human mGluR4 expressed in CHO-K1 cells assessed as decrease in forskolin-induced intracellular cAMP accumulation after 1 hr by fluorescence assay; assay type: functional, cell-based
Sequence (Q14833 whole entry): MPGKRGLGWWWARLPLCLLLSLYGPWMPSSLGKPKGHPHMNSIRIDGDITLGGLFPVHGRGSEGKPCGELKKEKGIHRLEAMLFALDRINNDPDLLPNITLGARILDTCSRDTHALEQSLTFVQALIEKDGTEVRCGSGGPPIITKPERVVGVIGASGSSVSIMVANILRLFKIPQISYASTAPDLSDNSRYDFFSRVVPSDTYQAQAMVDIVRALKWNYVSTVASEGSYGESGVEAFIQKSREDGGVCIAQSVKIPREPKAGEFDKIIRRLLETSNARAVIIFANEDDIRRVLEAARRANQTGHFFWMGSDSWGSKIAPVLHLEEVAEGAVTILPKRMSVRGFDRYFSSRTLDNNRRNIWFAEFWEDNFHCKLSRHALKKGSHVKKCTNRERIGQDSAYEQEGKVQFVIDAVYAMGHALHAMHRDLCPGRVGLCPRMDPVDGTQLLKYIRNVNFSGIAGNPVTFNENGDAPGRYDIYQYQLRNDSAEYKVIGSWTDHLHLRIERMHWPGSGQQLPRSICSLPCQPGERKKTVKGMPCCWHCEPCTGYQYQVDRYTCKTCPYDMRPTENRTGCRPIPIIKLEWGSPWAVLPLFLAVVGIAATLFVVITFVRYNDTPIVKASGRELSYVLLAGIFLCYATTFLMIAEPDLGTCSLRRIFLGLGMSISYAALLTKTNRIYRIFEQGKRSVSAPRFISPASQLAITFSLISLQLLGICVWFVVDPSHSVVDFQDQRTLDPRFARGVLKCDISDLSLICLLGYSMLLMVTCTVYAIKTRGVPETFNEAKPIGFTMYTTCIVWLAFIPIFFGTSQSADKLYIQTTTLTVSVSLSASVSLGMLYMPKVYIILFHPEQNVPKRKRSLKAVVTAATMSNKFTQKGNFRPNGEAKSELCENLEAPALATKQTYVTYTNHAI
outcome_measure: EC50 (µM)

>>> assay_result("Cc1cc(/C=C/c2ccccc2)nc(N)n1")
0.8
>>> assay_result("Nc1nccc(C#Cc2ccccc2)n1")
20
>>> assay_result("Nc1nccc(/C=C/c2cccc(F)c2)n1")
4.5
>>> assay_result("COc1cc(/C=C/c2ccccc2)nc(N)n1")
2
>>> assay_result("CCOC(=O)C(=O)Nc1nccc(/C=C/c2ccccc2)n1")
5
>>> assay_result("Nc1nccc(/C=C/c2ccccc2)n1")
1

----------
assay: Mean residence time in rat at 2 mg/kg, iv; assay type: ADME, organism-based; parameters: dose 2 mg/kg, route intravenous; conditions: in vivo, read-out: Time
outcome_measure: MRT

>>> assay_result("Nc1nccc(/C=C/c2ccccc2)n1")
"36 min"

----------
test: Volume of distribution in rat at 2 mg/kg, iv; format: ADME, organism-based; set-up: dose 2 mg/kg, route intravenous; settings: in vivo
outcome_measure: Vd (L/kg)

>>> assay_result("Nc1nccc(/C=C/c2ccccc2)n1")
2.7

----------
molecular target: Metabotropic glutamate receptor 5 (Homo sapiens, UniProt P41594); test: Agonist activity at human mGluR5 expressed in CHO-K1 cells in absence of glutamate; format: functional, cell-based
Sequence (P41594 whole entry): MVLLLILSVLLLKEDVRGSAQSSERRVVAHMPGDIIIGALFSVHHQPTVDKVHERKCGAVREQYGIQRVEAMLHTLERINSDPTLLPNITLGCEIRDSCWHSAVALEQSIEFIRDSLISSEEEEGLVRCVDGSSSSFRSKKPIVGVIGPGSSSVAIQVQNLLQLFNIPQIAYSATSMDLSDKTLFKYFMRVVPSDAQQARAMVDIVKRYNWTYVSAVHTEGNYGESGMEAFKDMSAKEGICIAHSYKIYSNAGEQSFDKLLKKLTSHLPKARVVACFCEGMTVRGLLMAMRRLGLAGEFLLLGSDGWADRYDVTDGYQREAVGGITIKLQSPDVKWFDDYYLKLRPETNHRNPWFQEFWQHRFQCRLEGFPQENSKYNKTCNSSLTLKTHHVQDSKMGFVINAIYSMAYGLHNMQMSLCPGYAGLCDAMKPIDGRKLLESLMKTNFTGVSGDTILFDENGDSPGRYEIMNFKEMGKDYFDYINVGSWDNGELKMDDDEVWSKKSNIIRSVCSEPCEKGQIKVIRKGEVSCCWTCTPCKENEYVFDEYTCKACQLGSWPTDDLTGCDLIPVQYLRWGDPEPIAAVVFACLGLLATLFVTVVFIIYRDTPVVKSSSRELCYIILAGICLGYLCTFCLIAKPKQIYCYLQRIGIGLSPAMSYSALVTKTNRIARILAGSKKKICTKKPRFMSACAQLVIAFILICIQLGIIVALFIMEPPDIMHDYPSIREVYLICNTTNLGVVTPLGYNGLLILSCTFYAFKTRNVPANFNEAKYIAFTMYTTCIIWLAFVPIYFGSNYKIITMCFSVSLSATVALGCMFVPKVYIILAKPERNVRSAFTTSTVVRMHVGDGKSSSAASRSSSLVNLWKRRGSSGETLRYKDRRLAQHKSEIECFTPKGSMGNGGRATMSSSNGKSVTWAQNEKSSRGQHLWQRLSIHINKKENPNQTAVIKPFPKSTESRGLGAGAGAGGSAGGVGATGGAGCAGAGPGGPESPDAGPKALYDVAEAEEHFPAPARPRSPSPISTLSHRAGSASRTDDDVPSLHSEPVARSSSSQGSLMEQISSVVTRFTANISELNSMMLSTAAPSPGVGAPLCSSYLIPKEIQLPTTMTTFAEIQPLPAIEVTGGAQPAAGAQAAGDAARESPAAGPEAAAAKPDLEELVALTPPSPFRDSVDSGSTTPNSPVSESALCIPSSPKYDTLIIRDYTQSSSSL
outcome_measure: EC50

>>> assay_result("Nc1nccc(/C=C/c2ccccc2)n1")
"> 10 µM"

----------
target: Metabotropic glutamate receptor 4 (Homo sapiens); test: Positive allosteric modulation of human mGluR4 expressed in CHO-K1 cells assessed as decrease in forskolin-induced intracellular cAMP accumulation after 1 hr by fluorescence assay relative to (-)-PHCC; type: functional, cell-based
outcome_measure: Emax (%)

>>> assay_result("Nc1ncc(Cl)c(/C=C/c2ccccc2)n1")
102
>>> assay_result("Cc1cc(/C=C/c2ccccc2)nc(N)n1")
99
>>> assay_result("Nc1nccc(/C=C/c2ccccc2)n1")
106
>>> assay_result("Nc1nccc(-c2cc3ccccc3o2)n1")
58
>>> assay_result("Nc1cccc(/C=C/c2ccccc2)n1")
92
>>> assay_result("Nc1cncc(/C=C/c2ccccc2)n1")
72
>>> assay_result("Nc1nc(/C=C/c2ccccc2)cc(C(F)(F)F)n1")
95
>>> assay_result("COc1cc(/C=C/c2ccccc2)nc(N)n1")
106
>>> assay_result("Nc1ncc(Br)c(/C=C/c2ccccc2)n1")
94
>>> assay_result("CCOC(=O)C(=O)Nc1nccc(/C=C/c2ccccc2)n1")
82
>>> assay_result("Nc1nccc(/C=C/c2ccccn2)n1")
92
>>> assay_result("Nc1nccc(/C=C/c2cccnc2)n1")
55
>>> assay_result("Cc1nc(N)nc(/C=C/c2ccccc2)c1C")
88
>>> assay_result("Nc1nccc(/C=C/c2ccc(F)cc2)n1")
106
>>> assay_result("Nc1nccc(/C=C/c2ccccc2F)n1")
101
>>> assay_result("Cc1nccc(/C=C/c2ccccc2)n1")
67
>>> assay_result("Nc1nccc(/C=C/c2ccco2)n1")
94
>>> assay_result("Nc1nccc(/C=C/c2cccc(F)c2)n1")
99
>>> assay_result("Nc1nccc(C#Cc2ccccc2)n1")
86
>>> assay_result("Cc1cnc(N)nc1/C=C/c1ccccc1")
94
>>> assay_result("Nc1nccc(/C=C/c2cccs2)n1")
98
>>> assay_result("Sc1nccc(/C=C/c2ccccc2)n1")
115
